- Test system: Streptococcus pyogenes
- testSummary: Antibacterial activity against Streptococcus pyogenes G-36 was determined
- Type: functional
- testContext: Streptococcus pyogenes; read-out: MIC
Please note: MIC exactly at 0.8 mg/L is not satisfied. Only values below 0.8 mg/L get satisfied.

Ask: Strictly below 0.8 mg/L in MIC? Cc1c(N2C[C@H]3CCC[C@@H](N)[C@H]3C2)c(F)c(N)c2c(=O)c(C(=O)O)cn([C@@H]3C[C@@H]3F)c12
Result: satisfied

Ask: Check if MIC falls below 0.8 mg/L for CN[C@H](CC(C)C)C(=O)N[C@H]1C(=O)N[C@@H](CC(N)=O)C(=O)N[C@H]2C(=O)N[C@H]3C(=O)N[C@H](C(=O)N[C@H](C(=O)O)c4cc(O)cc(O)c4-c4cc3ccc4O)[C@H](O)c3ccc(c(Cl)c3)Oc3cc2cc(c3O[C@@H]2O[C@H](CO)[C@@H](O)[C@H](O)[C@H]2O[C@H]2C[C@](C)(N)[C@H](O)[C@H](C)O2)Oc2ccc(cc2Cl)[C@H]1O .
Result: satisfied

Ask: Is it true that MIC reported for Cc1c(N2C[C@H]3CC[C@H]4C[C@@]4(N)[C@H]3C2)c(F)c(N)c2c(=O)c(C(=O)O)cn([C@@H]3C[C@@H]3F)c12 is less than 0.8 mg/L?
Result: satisfied

Ask: For Nc1c(F)c(N2C[C@H]3C[C@@H]4C[C@@H]4[C@H](N)[C@H]3C2)c(F)c2c1c(=O)c(C(=O)O)cn2[C@@H]1C[C@@H]1F (stereo in doubt; 26 (+)) , is the recorded MIC below the cut-off of 0.8 mg/L?
Result: satisfied

Ask: Does the reported MIC of CC(=O)NC[C@H]1CN(c2ccc(N3CCOCC3)c(F)c2)C(=O)O1 stay below 0.8 mg/L?
Result: not satisfied

Ask: API: query returns whether the compound falls strictly under 0.8 mg/L in MIC. Query: COc1c(N2C[C@@H]3CCCN[C@@H]3C2)c(F)cc2c(=O)c(C(=O)O)cn(C3CC3)c12
Result: satisfied
